- measured on: PXR (NR1I2); readout CYP3A4/5 mRNA (Homo sapiens)
- test details: Induction of PXR in human primary hepatocytes assessed as upregulation of CYP3A4/5 mRNA expression at 30 uM after 48 hrs relative to rifampicin
- Assay type: ADME, cell-based
quantity name: Emax at 48 h, 30 µM (%)
Supply the numeric figure in %, leaving out any unit text.

stdin: Please look up its Emax at 48 h, 30 µM: Cc1cccc(-c2ccc(OC[C@@H]3Cn4cc(C)c(=O)nc4O3)cc2)c1C
stdout: 16

stdin: Bench note: what Emax at 48 h, 30 µM did Cc1cccc(-c2ccc(OC[C@@H]3Cn4ccc(=O)nc4O3)cc2)c1C show?
stdout: 80

stdin: Consider the molecule O=c1ccn2c(n1)O[C@H](COc1ccc(-c3cccc(C(F)(F)F)c3)cc1)C2 and give its measured Emax at 48 h, 30 µM.
stdout: 158

stdin: For the molecule shown here, CC(C)(C)c1ccc(OC[C@@H]2Cn3ccc(=O)nc3O2)cc1 , give the reported Emax at 48 h, 30 µM.
stdout: 3.1

stdin: Record request: Emax at 48 h, 30 µM value, item CCc1cn2c(nc1=O)O[C@H](COc1ccc(-c3cccc(C)c3C)cc1)C2
stdout: 0

stdin: What does the data say about its Emax at 48 h, 30 µM? Entry: Cc1cccc(-c2ccc(OC[C@@H]3Cn4c(C)cc(=O)nc4O3)cc2)c1C
stdout: 84

stdin: Data request, read-out Emax at 48 h, 30 µM, for CC1(C)CCc2cc(OC[C@@H]3Cn4ccc(=O)nc4O3)ccc21
stdout: 13

----------
Please respond with reported Emax at 48 h, 1 µM for every item in the list.
- measured on: PXR (NR1I2); readout CYP3A4/5 mRNA (Homo sapiens, UniProt O75469)
- Sequence (O75469 whole entry): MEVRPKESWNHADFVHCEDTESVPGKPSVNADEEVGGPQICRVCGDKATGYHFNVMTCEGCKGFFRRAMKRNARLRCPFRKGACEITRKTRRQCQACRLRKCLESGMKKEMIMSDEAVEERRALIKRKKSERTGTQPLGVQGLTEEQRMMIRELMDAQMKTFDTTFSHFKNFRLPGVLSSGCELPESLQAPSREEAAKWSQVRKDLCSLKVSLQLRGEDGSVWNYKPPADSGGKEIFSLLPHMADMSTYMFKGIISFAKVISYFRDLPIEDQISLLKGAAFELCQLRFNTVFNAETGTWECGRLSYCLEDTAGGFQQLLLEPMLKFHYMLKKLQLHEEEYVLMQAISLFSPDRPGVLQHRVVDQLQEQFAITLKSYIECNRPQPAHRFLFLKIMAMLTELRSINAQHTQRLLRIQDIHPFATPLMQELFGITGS
- test details: Induction of PXR in human primary hepatocytes assessed as upregulation of CYP3A4/5 mRNA expression at 1 uM after 48 hrs relative to rifampicin
- Format: ADME, cell-based
Numeric answer only, unit % assumed.

stdin: Query (molecule): Cc1cccc(-c2ccc(OC[C@@H]3Cn4ccc(=O)nc4O3)cc2)c1C ; field requested: Emax at 48 h, 1 µM
stdout: 11

stdin: Data request, read-out Emax at 48 h, 1 µM, for Cc1cccc(-c2ccc(OC[C@@H]3Cn4cc(C)c(=O)nc4O3)cc2)c1C
stdout: 28

stdin: Return reported Emax at 48 h, 1 µM; argument: CCc1cn2c(nc1=O)O[C@H](COc1ccc(-c3cccc(C)c3C)cc1)C2
stdout: 16

stdin: Emax at 48 h, 1 µM for CC1(C)CCc2cc(OC[C@@H]3Cn4ccc(=O)nc4O3)ccc21 ?
stdout: 2

stdin: Give its Emax at 48 h, 1 µM value. Item: Cc1cccc(-c2ccc(OC[C@@H]3Cn4c(C)cc(=O)nc4O3)cc2)c1C
stdout: 15

stdin: Bench note: what Emax at 48 h, 1 µM did CC(C)(C)c1ccc(OC[C@@H]2Cn3ccc(=O)nc3O2)cc1 show?
stdout: 0.68

stdin: I would be grateful if you could share the reported Emax at 48 h, 1 µM for O=c1ccn2c(n1)O[C@H](COc1ccc(-c3cccc(C(F)(F)F)c3)cc1)C2 .
stdout: 25
